Biological target: renin activity in human plasma (Homo sapiens, UniProt P00797)
Construct: Human plasma (200 μl)
Sequence (P00797 67-406): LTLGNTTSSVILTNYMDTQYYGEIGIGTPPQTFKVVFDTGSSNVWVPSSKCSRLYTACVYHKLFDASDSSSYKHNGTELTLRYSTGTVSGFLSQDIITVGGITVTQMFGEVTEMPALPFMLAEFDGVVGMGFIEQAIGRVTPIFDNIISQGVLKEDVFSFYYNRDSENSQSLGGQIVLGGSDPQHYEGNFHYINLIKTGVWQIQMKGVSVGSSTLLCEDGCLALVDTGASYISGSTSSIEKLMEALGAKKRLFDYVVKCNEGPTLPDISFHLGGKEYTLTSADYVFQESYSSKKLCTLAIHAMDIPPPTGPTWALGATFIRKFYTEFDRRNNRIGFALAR
Assay: Inhibitory action on renin activity in human plasma
Conditions: 37° C., 1 hour, angiotensin I by radio immunoassay
pIC50: −log10 of the molar value.
property-name: pIC50

Here's what some known entries look like.
molecule	property-name	number
CN(C(=O)[C@H](Cc1ccccc1)NS(=O)(=O)N1CCCCC1)[C@@H](Cc1c[nH]cn1)C(=O)N[C@@H](CC1CCCCC1)[C@@H](O)C[C@@H]1OCOC1(C)C [Example 6]	pIC50	7.96
CN(C(=O)[C@H](Cc1ccccc1)NC(=O)N1CCCCC1)[C@@H](Cc1c[nH]cn1)C(=O)N[C@@H](CC1CCCCC1)[C@@H](O)C[C@@H]1OCOC1(C)C [Example 1]	pIC50	9.05

A. CN(C(=O)[C@H](Cc1ccccc1)NC(=O)N1CCCCC1)[C@@H](Cc1c[nH]cn1)C(=O)N[C@@H](CC1CCCCC1)[C@@H](O)C[C@@H]1OC(c2ccccc2)OC1(C)C (some centres unmarked) [Example 12]
B. CC1(C)OCO[C@H]1C[C@H](O)[C@H](CC1CCCCC1)NC(=O)[C@H](Cc1c[nH]cn1)NC(=O)[C@H](Cc1ccccc1)NC(=O)N1CCCCC1 [Example 4]
C. CCN(CC)C(=O)N[C@@H](Cc1ccccc1)C(=O)N(C)[C@@H](Cc1c[nH]cn1)C(=O)N[C@@H](CC1CCCCC1)[C@@H](O)C[C@@H]1OCOC1(C)C [Example 10]
Hey, can you sort those molecules up there by pIC50, smallest first? Please respond by ranking the labels in the order requested.
C, A, B
